This collection of values is drawn from paper PMC3928310.

- EXPERIMENTAL_TARGET: T1, MC1 I89A (Methanosarcina thermophila CHTI55, UniProt P12770 1-93, I89A)
- T1 sequence: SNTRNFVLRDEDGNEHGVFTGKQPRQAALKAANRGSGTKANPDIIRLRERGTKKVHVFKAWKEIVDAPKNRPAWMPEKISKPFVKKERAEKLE
- ASSAY_NOTES: EMSA; EMSA: 10 mM Tris-HCl pH 7.5, 150 mM NaCl, 1 mM EDTA, 15 ug/ml BSA, 8% glycerol, 15 min at 20 C, 0.1 nM DNA, TBE gel; NMR PRE: 10 mM phosphate pH 6, 100 mM NaCl, 10% D2O
- CONDITION_PARAMETERS: protein: recombinant; label: 5'-32P on one strand; blunt

[
  {
    "BINDER": "26 bp EMSA duplex (dsDNA) DNA 1: GCCTCAAAAACACACACCCCCGACAG DNA 2: CTGTCGGGGGTGTGTGTTTTTGAGGC",
    "Kd / nM": 15.4
  }
]
